targetOfAssay: human long isoform of D2 receptor (D2LR) (Homo sapiens, UniProt P14416)
Construct: expressed in transfected cells; host or cells: HEK293T
Sequence (P14416 whole entry, canonical isoform): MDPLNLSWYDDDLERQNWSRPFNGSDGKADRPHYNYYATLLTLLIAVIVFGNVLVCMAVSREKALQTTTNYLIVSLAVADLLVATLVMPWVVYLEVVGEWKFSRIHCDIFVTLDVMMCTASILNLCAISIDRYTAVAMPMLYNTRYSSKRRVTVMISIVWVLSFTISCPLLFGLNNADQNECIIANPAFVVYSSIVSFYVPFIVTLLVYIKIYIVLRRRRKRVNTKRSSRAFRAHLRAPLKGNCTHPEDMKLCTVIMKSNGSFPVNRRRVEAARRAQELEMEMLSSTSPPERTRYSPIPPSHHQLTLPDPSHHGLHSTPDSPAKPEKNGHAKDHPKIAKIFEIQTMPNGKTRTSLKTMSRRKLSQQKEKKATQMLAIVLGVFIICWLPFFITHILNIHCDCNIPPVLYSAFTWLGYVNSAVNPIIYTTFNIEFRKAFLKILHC
test: ebBRET assay of inhibition of dopamine-induced β-arrestin-2 translocation in HEK-293T cells
Assay type: cell-based
measurementContext: Ki (nM) (95% CI), 20 min β-arr, apparent affinity, IC50 corrected by Cheng–Prusoff; 20 min; 10 µM dopamine; HEK-293T
endpointLabel: Ki (nM)

a. Clc1ccc(-n2cc(CN3CCN(c4ccccc4)CC3)cn2)cc1
b. Oc1ccc(N2CCN(Cc3cnn(-c4ccc(Cl)cc4)c3)CC2)cc1
Query: Which of the two items, a and b , has the greater recorded Ki? Indicate which entry you chose by stating its label.
Reply: b
(b: 209 nM, a: 41.6 nM)

* * *

targetOfAssay: human long isoform of D2 receptor (D2LR) (Homo sapiens)
Construct: expressed in transfected cells; host or cells: HEK293T
test: BRET assay of inhibition of dopamine-induced Gi activation in HEK-293T cells
Assay type: cell-based
measurementContext: Ki (nM) (95% CI), 5 min Gi, apparent affinity, IC50 corrected by Cheng–Prusoff; 5 min; 100 nM dopamine; HEK-293T
endpointLabel: Ki (nM)

A. Clc1ccc(-n2cc(CN3CCN(c4ccccc4)CC3)cn2)cc1 [LASSBio-579]
B. Oc1ccc(N2CCN(Cc3cnn(-c4ccc(Cl)cc4)c3)CC2)cc1 [LQFM 037]
Query: Please indicate which entry, A or B , has the lower recorded Ki value. Provide the label of your selected option as the answer.
Reply: A

* * *

targetOfAssay: human long isoform of D2 receptor (D2LR) (Homo sapiens)
Construct: expressed in transfected cells; host or cells: HEK293T
test: ebBRET assay of inhibition of dopamine-induced β-arrestin-2 translocation in HEK-293T cells
Format: cell-based
measurementContext: Ki (nM) (95% CI), 5 min β-arr, apparent affinity, IC50 corrected by Cheng–Prusoff; 5 min; 10 µM dopamine; HEK-293T
endpointLabel: Ki (nM)

1. Oc1ccc(N2CCN(Cc3cnn(-c4ccc(Cl)cc4)c3)CC2)cc1
2. Clc1ccc(-n2cc(CN3CCN(c4ccccc4)CC3)cn2)cc1
Query: # argmax over Ki for candidates 1 and 2 # reply format: chosen label
Reply: 1
(1: 353 nM, 2: 109 nM)

* * *

targetOfAssay: human long isoform of D2 receptor (D2LR) (Homo sapiens)
Construct: expressed in transfected cells; host or cells: HEK293T
test: BRET assay of inhibition of dopamine-induced Gi activation in HEK-293T cells
Assay type: cell-based
measurementContext: Ki (nM) (95% CI), 20 min Gi, apparent affinity, IC50 corrected by Cheng–Prusoff; 20 min; 100 nM dopamine; HEK-293T
endpointLabel: Ki (nM)

A. Oc1ccc(N2CCN(Cc3cnn(-c4ccc(Cl)cc4)c3)CC2)cc1 [LQFM 037]
B. Clc1ccc(-n2cc(CN3CCN(c4ccccc4)CC3)cn2)cc1 [LASSBio-579]
Query: Form: Entry with minimum Ki (choose one): A / B Give the label of your selection.
Reply: B

The measurements presented in this section are drawn from paper PMC6558205.
